These data points were gathered from patent US8716287B2.

# SYSTEM: Chk-1 kinase (Homo sapiens (Human))
# MEASUREMENT_DESCRIPTION: Chk-1 kinase inhibiting activity (33P-ATP filter assay, CHKtide substrate)
# Format: biochemical
# STATED_CONDITIONS: Chk-1 kinase, Table 3; read-out: IC50
Structures can show the parent of a compound that is named as a salt.
OUTCOME_MEASURE: IC50 (nM)
One number for each entry, in nM.

compound="CCOc1cc(CCNCc2ccc(F)cc2)c(Cl)cc1NC(=O)Nc1cnc(C#N)cn1 [Example 45, hydrochloride]" observed_value=1.2
compound="N#Cc1cnc(NC(=O)Nc2ccc(CCNCc3ccc(F)c(F)c3)c(Cl)c2)cn1 [Example 40]" observed_value=7.9
compound="COc1cc(OCCNCc2ccc(F)cc2)c(Cl)cc1NC(=O)Nc1cnc(C#N)cn1 [Example 47, hydrochloride]" observed_value=8.4

Form field: reported IC50 of N#Cc1cnc(NC(=O)Nc2ccc(CCNCc3cccc(F)c3)c(Cl)c2)cn1 [Example 9]
2

###

# SYSTEM: Chk-1 kinase (Homo sapiens (Human), UniProt O14757)
# Sequence (O14757 whole entry): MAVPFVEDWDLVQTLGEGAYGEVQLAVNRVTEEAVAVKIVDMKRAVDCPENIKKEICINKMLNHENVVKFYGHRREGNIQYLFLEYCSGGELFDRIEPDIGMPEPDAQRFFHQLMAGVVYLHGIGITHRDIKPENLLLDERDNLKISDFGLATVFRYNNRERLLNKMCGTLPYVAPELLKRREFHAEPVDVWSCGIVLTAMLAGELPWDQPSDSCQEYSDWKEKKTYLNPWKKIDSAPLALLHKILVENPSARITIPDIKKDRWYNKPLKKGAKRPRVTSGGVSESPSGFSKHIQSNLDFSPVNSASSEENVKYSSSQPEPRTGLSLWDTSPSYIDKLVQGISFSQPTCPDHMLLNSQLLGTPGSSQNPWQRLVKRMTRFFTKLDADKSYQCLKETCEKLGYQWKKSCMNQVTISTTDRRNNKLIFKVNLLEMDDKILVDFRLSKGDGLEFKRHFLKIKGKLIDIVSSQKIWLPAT
# MEASUREMENT_DESCRIPTION: Chk-1 kinase inhibiting activity (33P-ATP filter assay, CHKtide substrate)
# Format: biochemical
# STATED_CONDITIONS: Chk-1 kinase, Table 3; read-out: IC50
pIC50: −log10 of the molar value. Where a name gives a salt, the structure may show the parent alone.
pIC50 below 8 gives no (0); pIC50 at or above it gives yes (1).

Does pIC50 meet or surpass 8 for COc1cc(CNCc2ccccc2)c(Cl)cc1NC(=O)Nc1cnc(C#N)cn1 [Example 56, hydrochloride] ?
yes (1)

Does pIC50 meet or surpass 8 for N#Cc1cnc(NC(=O)Nc2ccc(CNCc3ccccc3)cc2)cn1 [Example 29] ?
no (0)

Does pIC50 meet or surpass 8 for COc1cc(CCNCc2ccc(F)cc2)ccc1NC(=O)Nc1cnc(C#N)cn1 [Example 20] ?
yes (1)

Does pIC50 meet or surpass 8 for COc1cc(CCNCc2ccc(N3CCN(C)CC3)cc2)ccc1NC(=O)Nc1cnc(C#N)cn1 [Example 51] ?
yes (1)

Does pIC50 meet or surpass 8 for N#Cc1cnc(NC(=O)Nc2ccc(CCNCc3ccc(F)cc3)cc2)cn1 [Example 2] ?
no (0)
